System: Plasmodium falciparum
Assay: Gametocytocidal activity against Plasmodium falciparum 3D7 elo1-pfs16-CBG99 late-stage (4 to 5) gametocytes assessed as inhibition of parasite viability after 72 hrs by luciferase reporter assay
Assay type: functional, organism-based
Details: 3D7 elo1-pfs16-CBG99, 72 h
IC50 overview
Give the quantity in µM, number only.

Take a look at these entries with their results.
- compound: "Clc1cc(Br)ccc1-c1ccc(CNCC2CCNCC2)s1"
  unit_name: "µM"
  numeric_value: 0.85
- compound: "Brc1ccc(-c2ccc(CNCC3CCNCC3)o2)cc1"
  unit_name: "µM"
  numeric_value: 4.4
- compound: "Fc1ccc(-c2ccc(CNCC3CCNCC3)o2)cc1"
  unit_name: "µM"
  numeric_value: 6
- compound: "CN(C)CCCNCc1ccc(-c2ccc(Br)cc2Cl)o1"
  unit_name: "µM"
  numeric_value: 1.1
- compound: "Clc1ccccc1-c1ccc(CNCC2CCNCC2)o1"
  unit_name: "µM"
  numeric_value: 5.9
- compound: "Clc1cc(-c2ccccc2)ccc1-c1ccc(CNCC2CCNCC2)o1"
  unit_name: "µM"
  numeric_value: 1.4
- compound: "c1ccc(-c2ccc(CNCC3CCNCC3)o2)cc1"
  unit_name: "µM"
  numeric_value: 8.6
- compound: "Clc1cc(Br)ccc1-c1ccc(CNCC2CCNCC2)o1"
  unit_name: "µM"
  numeric_value: 1.2
- compound: "C[N+](C)(CCCNCc1ccc(-c2ccc(Cl)cc2Br)o1)Cc1ccccc1"
  unit_name: "µM"
  numeric_value: 4.8
- compound: "CN(C)c1ccc2nc3ccc(N(C)C)cc3[s+]c2c1 [METHYLENE BLUE ANHYDROUS]"
  unit_name: "µM"
  numeric_value: 0.03

Input: # get_value(readout='IC50', item= FC(F)(F)c1ccc(-c2cccc(CNCC3CCNCC3)n2)cc1 )
Output: 4

###

System: Plasmodium falciparum
Experiment: Gametocytocidal activity against Plasmodium falciparum 3D7 elo1-pfs16-CBG99 late-stage (4 to 5) gametocytes assessed as inhibition of parasite viability after 72 hrs by luciferase reporter assay
Format: functional, organism-based
Conditions: 3D7 elo1-pfs16-CBG99, 72 h
IC50 overview
Give the quantity in µM, number only.

- molecule_smiles: "Brc1ccc2cc(CNCC3CCNCC3)sc2c1"
  unit_name: "µM"
  IC50: 1.4

Input: Form entry - test system: Plasmodium falciparum; read-out: IC50; molecule: Oc1ccccc1-c1ccc(CNCC2CCNCC2)o1
Output: 8.3

###

Target: Phosphoethanolamine N-methyltransferase (Plasmodium falciparum)
Assay: Inhibition of plasmodium falciparum phosphoethanolamine N-methyltransferase expressed in Escherichia coli assessed as remaining enzyme activity at 100 uM using phosphoethanolamine as substrate and [methyl-14C] SAM by radiochemical assay
Activity overview
Give the quantity in %, number only.

- molecule_smiles: "C[N+](C)(CCCNCc1ccc(-c2ccc(Cl)cc2Br)o1)Cc1ccccc1"
  tgt: "Phosphoethanolamine N-methyltransferase (Plasmodium falciparum)"
  unit_name: "%"
  Activity: 95.8
- molecule_smiles: "Clc1cc(Br)ccc1-c1ccc(CNCC2CCNCC2)o1"
  tgt: "Phosphoethanolamine N-methyltransferase (Plasmodium falciparum)"
  unit_name: "%"
  Activity: 92
- molecule_smiles: "Clc1ccc(-c2ccc(CNCC3CCNCC3)o2)c(-c2ccccc2)c1"
  tgt: "Phosphoethanolamine N-methyltransferase (Plasmodium falciparum)"
  unit_name: "%"
  Activity: 30

Could you now consider this next compound?
Input: # get_value(readout='Activity', item= N#Cc1ccc(-c2ccc(CNCC3CCNCC3)o2)cc1 )
Output: 73.2

###

Tested on: Plasmodium falciparum
Test: Gametocytocidal activity against Plasmodium falciparum 3D7 elo1-pfs16-CBG99 late-stage (4 to 5) gametocytes assessed as inhibition of parasite viability after 72 hrs by luciferase reporter assay
Format: functional, organism-based
Conditions: 3D7 elo1-pfs16-CBG99, 72 h
readout_name: pIC50
Would you please state pIC50, meaning minus log10 of the concentration in mol/L, as a bare number?

- molecule_smiles: "Clc1ccc(-c2ccc(CNCC3CCNCC3)s2)c(Br)c1"
  tgt: "Plasmodium falciparum"
  pIC50: 6.08
- molecule_smiles: "Clc1ccc(-c2ccc(CNCC3CCNCC3)o2)c(Br)c1"
  tgt: "Plasmodium falciparum"
  pIC50: 5.96
- molecule_smiles: "FC(F)(F)c1ccc(-c2ccc(CNCC3CCNCC3)o2)cc1"
  tgt: "Plasmodium falciparum"
  pIC50: 5.72

Input: # get_value(readout='pIC50', item= COc1ccccc1-c1ccc(CNCC2CCNCC2)o1 )
Output: 4.93

Input: # get_value(readout='pIC50', item= N#Cc1ccc(-c2ccc(CNCC3CCNCC3)o2)cc1 )
Output: 4.74

Input: # get_value(readout='pIC50', item= Clc1ccc(-c2ccc(CNCC3CCNCC3)o2)c(-c2ccccc2)c1 )
Output: 5.85

###

Assay: Cytotoxicity against mouse NIH/3T3 cells after 24 hrs by neutral red uptake assay
Type: cell-based, NIH3T3
Settings: read-out: TC50
The label is 1 for CC50 at 24 h below 20 µM and -1 for CC50 at 24 h equal to or exceeding 20 µM.

Worked cases, answers included:
- molecule_smiles: "Clc1ccc(-c2ccc(CNCC3CCNCC3)s2)c(Br)c1"
  discrete_label: 1
- molecule_smiles: "Clc1ccc(-c2ccc(CNCC3CCNCC3)o2)c(Br)c1"
  discrete_label: 1
- molecule_smiles: "Clc1cc(-c2ccccc2)ccc1-c1ccc(CNCC2CCNCC2)o1"
  discrete_label: 1
- molecule_smiles: "Clc1cc(Br)ccc1-c1ccc(CNCC2CCNCC2)s1"
  discrete_label: 1
- molecule_smiles: "COc1ccccc1-c1ccc(CNCC2CCNCC2)o1"
  discrete_label: -1

Input: Please indicate whether the reported CC50 at 24 h of Oc1ccccc1-c1ccc(CNCC2CCNCC2)o1 is strictly below 20 µM.
Output: 1

Input: Please indicate whether the reported CC50 at 24 h of FC(F)(F)c1ccc(-c2ccc(CNCC3CCNCC3)o2)cc1 is strictly below 20 µM.
Output: -1

Input: Please indicate whether the reported CC50 at 24 h of CN(C)CCCNCc1ccc(-c2ccc(Br)cc2Cl)o1 is strictly below 20 µM.
Output: 1

###

Target: Voltage-dependent L-type calcium channel subunit alpha-1C (Rattus norvegicus, UniProt P22002)
Sequence (P22002 whole entry): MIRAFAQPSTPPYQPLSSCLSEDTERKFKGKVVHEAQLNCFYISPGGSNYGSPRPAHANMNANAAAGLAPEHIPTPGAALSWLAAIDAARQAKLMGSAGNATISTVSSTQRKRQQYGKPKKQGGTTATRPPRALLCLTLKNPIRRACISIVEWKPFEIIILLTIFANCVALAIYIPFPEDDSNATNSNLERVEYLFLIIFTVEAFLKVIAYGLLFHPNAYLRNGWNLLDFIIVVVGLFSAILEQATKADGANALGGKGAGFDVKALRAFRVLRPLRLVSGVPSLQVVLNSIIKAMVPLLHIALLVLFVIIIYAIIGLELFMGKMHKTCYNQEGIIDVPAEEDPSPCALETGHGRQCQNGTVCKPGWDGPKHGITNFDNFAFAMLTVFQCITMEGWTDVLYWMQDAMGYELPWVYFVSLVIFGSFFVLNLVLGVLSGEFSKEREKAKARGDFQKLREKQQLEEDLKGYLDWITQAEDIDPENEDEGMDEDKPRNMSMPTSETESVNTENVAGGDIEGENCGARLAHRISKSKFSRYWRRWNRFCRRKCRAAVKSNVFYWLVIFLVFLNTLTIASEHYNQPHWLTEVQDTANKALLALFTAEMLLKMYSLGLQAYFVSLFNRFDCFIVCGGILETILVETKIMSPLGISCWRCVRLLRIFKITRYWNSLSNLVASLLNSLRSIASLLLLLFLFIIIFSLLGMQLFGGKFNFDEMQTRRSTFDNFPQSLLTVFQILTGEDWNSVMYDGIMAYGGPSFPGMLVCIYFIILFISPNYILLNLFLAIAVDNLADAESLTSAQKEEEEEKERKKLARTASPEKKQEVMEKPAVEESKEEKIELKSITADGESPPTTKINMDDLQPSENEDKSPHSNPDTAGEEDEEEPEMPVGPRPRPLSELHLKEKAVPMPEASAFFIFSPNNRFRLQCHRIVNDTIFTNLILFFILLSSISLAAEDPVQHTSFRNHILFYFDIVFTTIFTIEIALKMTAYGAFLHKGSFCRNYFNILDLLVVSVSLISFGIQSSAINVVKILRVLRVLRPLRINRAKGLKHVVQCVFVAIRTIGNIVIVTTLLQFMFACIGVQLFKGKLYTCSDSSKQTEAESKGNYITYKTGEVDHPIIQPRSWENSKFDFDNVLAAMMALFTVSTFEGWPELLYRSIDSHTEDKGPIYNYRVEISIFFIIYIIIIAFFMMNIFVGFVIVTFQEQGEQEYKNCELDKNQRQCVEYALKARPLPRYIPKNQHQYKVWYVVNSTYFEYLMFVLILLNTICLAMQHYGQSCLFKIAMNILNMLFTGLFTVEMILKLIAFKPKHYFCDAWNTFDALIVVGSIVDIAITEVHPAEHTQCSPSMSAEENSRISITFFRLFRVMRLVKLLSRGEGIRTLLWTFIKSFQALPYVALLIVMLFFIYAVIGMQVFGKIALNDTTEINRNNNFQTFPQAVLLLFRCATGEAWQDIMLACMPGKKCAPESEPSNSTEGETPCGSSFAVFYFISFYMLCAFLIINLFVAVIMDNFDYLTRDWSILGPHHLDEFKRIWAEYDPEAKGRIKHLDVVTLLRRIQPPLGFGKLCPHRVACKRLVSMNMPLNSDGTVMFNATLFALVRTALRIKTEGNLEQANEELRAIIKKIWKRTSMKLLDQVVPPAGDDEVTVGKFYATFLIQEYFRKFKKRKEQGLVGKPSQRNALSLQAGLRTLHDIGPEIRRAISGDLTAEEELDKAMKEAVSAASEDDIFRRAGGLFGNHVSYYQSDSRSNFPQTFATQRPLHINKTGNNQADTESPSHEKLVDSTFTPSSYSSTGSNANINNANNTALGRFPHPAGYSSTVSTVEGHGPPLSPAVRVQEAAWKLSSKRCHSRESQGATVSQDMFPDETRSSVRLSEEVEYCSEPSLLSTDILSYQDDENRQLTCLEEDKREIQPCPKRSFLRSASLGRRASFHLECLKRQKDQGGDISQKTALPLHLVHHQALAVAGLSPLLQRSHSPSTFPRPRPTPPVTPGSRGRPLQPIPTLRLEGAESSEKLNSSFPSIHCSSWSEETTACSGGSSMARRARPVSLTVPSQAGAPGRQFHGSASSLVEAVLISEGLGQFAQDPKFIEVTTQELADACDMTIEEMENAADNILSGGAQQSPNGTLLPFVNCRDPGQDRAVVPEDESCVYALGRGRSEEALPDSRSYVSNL
Experiment: Inhibition of CaV1.2 channel in rat tail artery myocytes assessed as reduction in Ba2+ current at -50 mV holding potential by whole-cell patch-clamp assay
readout_name: pIC50
Would you please state pIC50, meaning minus log10 of the concentration in mol/L, as a bare number?

Input: # get_value(readout='pIC50', item= Clc1ccc(-c2ccc(CNCC3CCNCC3)o2)c(-c2ccccc2)c1 )
Output: 5.48
